Form field: Split Luciferase Assay Z-score Set 1 (one value per entry).
MEASURED TARGET: FGF14:Nav1.6 C-tail complex (Homo sapiens, UniProt Q92915+Q9UQD0)
Construct: polymerase chain reaction (PCR) amplification of the FGF14 open reading frame (nt 1–855); C-terminal fragment of Nav1.6 (amino acids 1763–1976) fused with CD4ΔC-tail (amino acids 1–395); expressed in transfected cells
Sequence (Q92915 1-252 isoform Q92915-2): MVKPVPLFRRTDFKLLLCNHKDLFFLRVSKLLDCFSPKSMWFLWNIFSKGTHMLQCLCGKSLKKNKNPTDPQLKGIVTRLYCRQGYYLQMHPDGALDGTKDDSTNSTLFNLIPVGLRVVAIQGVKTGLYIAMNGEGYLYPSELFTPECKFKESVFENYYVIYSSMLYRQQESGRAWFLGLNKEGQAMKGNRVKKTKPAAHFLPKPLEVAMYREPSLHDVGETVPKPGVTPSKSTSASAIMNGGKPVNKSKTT
Sequence (Q9UQD0 1763-1976 limits assumed): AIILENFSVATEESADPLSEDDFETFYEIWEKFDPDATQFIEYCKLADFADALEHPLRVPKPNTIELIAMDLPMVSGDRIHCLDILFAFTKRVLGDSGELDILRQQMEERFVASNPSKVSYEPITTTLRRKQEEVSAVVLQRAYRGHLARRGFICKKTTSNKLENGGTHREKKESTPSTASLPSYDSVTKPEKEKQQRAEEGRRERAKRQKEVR
TEST DETAILS: Split-luciferase complementation assay (LCA) in Clone V double stable HEK293 cells
Format: cell-based
TEST CONTEXT: CC_NCI screening, biological replicate Set 1; normalized to on-plate 0.3% DMSO controls

>  <COMPOUND>
CC(=O)O[C@@]12CO[C@@H]1C[C@H](O)[C@@]1(C)C(=O)[C@H](O)C3=C(C)[C@@H](OC(=O)[C@H](O)[C@@H](NC(=O)OC(C)(C)C)c4ccccc4)C[C@@](O)([C@@H](OC(=O)c4ccccc4)[C@H]21)C3(C)C [Docetaxel]

>  <MEASURED TARGET>
FGF14:Nav1.6 C-tail complex (Homo sapiens, UniProt Q92915+Q9UQD0)

>  <Split Luciferase Assay Z-score Set 1>
6.00

$$$$
>  <COMPOUND>
O=P1(NCCCl)OCCCN1CCCl (centres unmarked) [Ifosfamide]

>  <MEASURED TARGET>
FGF14:Nav1.6 C-tail complex (Homo sapiens, UniProt Q92915+Q9UQD0)

>  <Split Luciferase Assay Z-score Set 1>
1.26

$$$$
>  <COMPOUND>
COc1cc2c(Nc3ccc(NC(=O)c4ccccc4)cc3)ncnc2cc1OCCCN1CCOCC1 [ZM447439]

>  <MEASURED TARGET>
FGF14:Nav1.6 C-tail complex (Homo sapiens, UniProt Q92915+Q9UQD0)

>  <Split Luciferase Assay Z-score Set 1>
1.70

$$$$
>  <COMPOUND>
CCN(CC)CCCC(C)Nc1nc(C)cc(Nc2ccc3nc(C)cc(N)c3c2)n1 (centres unmarked) [NSC23766]

>  <MEASURED TARGET>
FGF14:Nav1.6 C-tail complex (Homo sapiens, UniProt Q92915+Q9UQD0)

>  <Split Luciferase Assay Z-score Set 1>
0.12

$$$$
>  <COMPOUND>
CC(=O)OCCN1C(=O)c2c(C)nc3ccc(S(=O)(=O)N4CCOCC4)cc3c2C1=O [IVACHTIN]

>  <MEASURED TARGET>
FGF14:Nav1.6 C-tail complex (Homo sapiens, UniProt Q92915+Q9UQD0)

>  <Split Luciferase Assay Z-score Set 1>
0.99

$$$$
>  <COMPOUND>
O=C1NC(=O)c2c1c1c3ccccc3n3c1c1c2c2ccccc2n1C1CCC3O1 [SB 218078]

>  <MEASURED TARGET>
FGF14:Nav1.6 C-tail complex (Homo sapiens, UniProt Q92915+Q9UQD0)

>  <Split Luciferase Assay Z-score Set 1>
-1.55

$$$$
>  <COMPOUND>
Nc1ncnc2c1c(-c1cnc3[nH]ccc3c1)nn2C1CCCC1 [PP121, reference compound]

>  <MEASURED TARGET>
FGF14:Nav1.6 C-tail complex (Homo sapiens, UniProt Q92915+Q9UQD0)

>  <Split Luciferase Assay Z-score Set 1>
-4.89

$$$$
>  <COMPOUND>
CC(C)[C@H](NS(=O)(=O)c1ccc(-c2ccc(Br)cc2)cc1)C(=O)O [PD 166793]

>  <MEASURED TARGET>
FGF14:Nav1.6 C-tail complex (Homo sapiens, UniProt Q92915+Q9UQD0)

>  <Split Luciferase Assay Z-score Set 1>
0.38

$$$$
